Test: UV-Vis absorption and fluorescence spectroscopy (spectral properties in aqueous media / PBS buffer)
Type: physicochemical
Settings: aqueous media; relative quantum yield, TMR and SiTMR as reference
Would you kindly list ϕ for each of these compounds?
Output spec: single numeric token, no unit.

Exercise: I'd like to know its ϕ. The compound in question is CN(C)c1ccc2c(-c3cc(C(=O)NCc4ccc(COc5nc(N)nc6[nH]cnc56)cc4)ccc3C(=O)[O-])c3ccc(=[N+](C)C)cc-3oc2c1 [TMRSNAP]
Solution: 0.41

Exercise: I'd like to know its ϕ. The compound in question is CN(C)c1ccc2c(c1)[Si](C)(C)C1=CC(=[N+](C)C)C=CC1=C2c1cc(C(=O)NCCCn2cc(-c3cccc(Nc4ncnc5ccccc45)c3)nn2)ccc1C(=O)[O-] [SiRErl(UnT)]
Solution: 0.19

Exercise: I'd like to know its ϕ. The compound in question is Cc1cc(C(=O)NCCOCCOCCCCCCCl)ccc1-c1c2cc/c(=[N+](/C)CCCS(=O)(=O)[O-])cc-2oc2cc(N(C)C)ccc12 [OF550HALO]
Solution: 0.55

Exercise: I'd like to know its ϕ. The compound in question is CN(C)c1ccc2c(-c3cc(C(=O)NCCCn4cc(-c5cccc(Nc6ncnc7ccccc67)c5)nn4)ccc3C(=O)[O-])c3ccc(=[N+](C)C)cc-3oc2c1 [TMRErl(UnT)]
Solution: 0.37

Exercise: I'd like to know its ϕ. The compound in question is CN(C)c1ccc2c(c1)[Si](C)(C)C1=CC(=[N+](C)C)C=CC1=C2c1cc(C(=O)O)ccc1C(=O)[O-] [SiRCOOH]
Solution: 0.45

Exercise: I'd like to know its ϕ. The compound in question is CN(C)c1ccc2c(-c3cc(C(=O)O)ccc3C(=O)[O-])c3ccc(=[N+](C)C)cc-3oc2c1 [TMRCOOH]
Solution: 0.58
